The entries that follow carry IC50 values tested on Dual specificity protein kinase CLK1 (Homo sapiens, UniProt P49759), drawn from several published reports.
Sequence (P49759 whole entry): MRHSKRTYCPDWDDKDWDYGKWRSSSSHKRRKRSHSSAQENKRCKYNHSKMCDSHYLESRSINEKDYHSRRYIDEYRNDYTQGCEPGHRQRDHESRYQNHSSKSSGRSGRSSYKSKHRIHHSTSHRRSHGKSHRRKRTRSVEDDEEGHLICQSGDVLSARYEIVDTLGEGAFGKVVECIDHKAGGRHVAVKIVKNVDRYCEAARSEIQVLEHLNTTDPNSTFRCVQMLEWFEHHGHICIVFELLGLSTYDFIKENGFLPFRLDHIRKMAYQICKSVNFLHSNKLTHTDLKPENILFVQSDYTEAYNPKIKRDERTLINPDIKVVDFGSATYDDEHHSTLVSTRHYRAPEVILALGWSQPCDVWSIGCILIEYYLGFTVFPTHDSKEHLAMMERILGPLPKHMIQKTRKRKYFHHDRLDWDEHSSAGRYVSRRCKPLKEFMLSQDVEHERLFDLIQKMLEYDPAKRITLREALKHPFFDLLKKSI
measurement.label: IC50 (nM)

Req: Which IC50 value belongs to NC(=O)c1c(O)cc(O)c2c1oc1cc(O)ccc12 ?
Resp: 26

a = CC(C)C[C@H](N)COc1cncc(-c2ccc3[nH]nc(C#Cc4ccsc4)c3c2)c1
b = FC1(F)CCN(Cc2cncc(-c3ccc4[nH]nc(-c5nc(-c6ccco6)c(-c6ccco6)[nH]5)c4c3)c2)C1
Req: Larger number for IC50: a , or b ? When you have decided, please share the label of that item.
Resp: a
